# target.entity: JAK1 (Homo sapiens, UniProt P23458)
# Construct: JAK1 (aa 850-1154) and TYK2 (aa 871-1187) are expressed with an N-terminally fused GST-tag; GST (N)
# Sequence (P23458 850-1154): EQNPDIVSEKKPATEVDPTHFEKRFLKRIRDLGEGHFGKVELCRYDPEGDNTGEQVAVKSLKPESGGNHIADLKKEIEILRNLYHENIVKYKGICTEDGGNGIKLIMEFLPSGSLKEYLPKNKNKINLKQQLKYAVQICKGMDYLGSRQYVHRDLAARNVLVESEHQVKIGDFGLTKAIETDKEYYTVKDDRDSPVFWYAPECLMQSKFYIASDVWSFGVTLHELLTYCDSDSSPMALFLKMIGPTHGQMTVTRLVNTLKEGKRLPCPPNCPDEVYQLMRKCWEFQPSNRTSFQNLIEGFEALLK
# method.notes: JAK kinase assay (HTRF, phosphorylation of synthetic peptide), JAK1
# assay.context: catalytic domain, ATP at Km (7 μM); read-out: JAK1 kinase inhibitory activity (EC50)
pEC50: −log10 of the molar value.
readout.kind: pEC50

Quick check: pEC50 of COc1ccc(CNS(=O)(=O)N2CCN(c3ncnc4[nH]ccc34)CC23CC3)cc1 [Example 195] ?
6.30 to 7.00

Recorded pEC50 of N#CCN(CCO)S(=O)(=O)N1CCN(c2ncnc3[nH]ccc23)CC12CC2 [Example 108] , please.
> 7.00

Param item = CN(CCOc1cccc(C#N)c1)S(=O)(=O)N1CCN(c2ncnc3[nH]ccc23)CC12CC2 [Example 71] ; retrieve measured pEC50.
> 7.00

Would you mind telling me what pEC50 value was observed for CN(Cc1ccc(S(C)(=O)=O)cc1)S(=O)(=O)N1CCN(c2ncnc3[nH]ccc23)CC12CC2 [Example 83] ?
> 7.00

Which pEC50 value is on record for CN(CC1CCN(C(=O)CCO)CC1)S(=O)(=O)N1CCN(c2ncnc3[nH]ccc23)CC12CC2 [Example 151] ?
> 7.00

Which pEC50 value belongs to CN(CC1CCN(S(C)(=O)=O)C1)S(=O)(=O)N1CCN(c2ncnc3[nH]ccc23)CC12CC2 (stereo not shown) [Example 119] ?
> 7.00

For the compound O=S1(=O)CCC(CN(CCO)S(=O)(=O)N2CCN(c3ncnc4[nH]ccc34)CC23CC3)CC1 [Example 170] , what pEC50 is on record?
> 7.00

// lookup pEC50 for CC(C)(C)OC(=O)NS(=O)(=O)N1CCN(c2ncnc3[nH]ccc23)CC12CC2 [Int 53]
> 7.00

Look at this compound and give its reported pEC50. CN(CC1CC1)S(=O)(=O)N1CCN(c2ncnc3[nH]ccc23)CC12CC2 [Example 59]
> 7.00

// returns reported pEC50 for input O=S(=O)(N(CCc1ccccc1)CCc1ccccc1)N1CCN(c2ncnc3[nH]ccc23)CC12CC2 [Example 18]
6.30 to 7.00

Returns the measured pEC50 for the input compound. Input: CN(C[C@@H]1CC(F)(F)CN1S(=O)(=O)CC1CC1)S(=O)(=O)N1CCN(c2ncnc3[nH]ccc23)CC12CC2 [Example 164]
> 7.00

Param item = CN(C[C@H]1CCCN1)S(=O)(=O)N1CCN(c2ncnc3[nH]ccc23)CC12CC2 [Int 51] ; retrieve measured pEC50.
6.30 to 7.00

Please report the recorded pEC50 for CN(Cc1ccc(C(F)(F)F)cc1)S(=O)(=O)N1CCN(c2ncnc3[nH]ccc23)CC12CC2 [Example 81] .
> 7.00

Requested read-out: pEC50. Entry: CC#CCN(CCc1ccccc1)S(=O)(=O)N1CCN(c2ncnc3[nH]ccc23)CC12CC2 [Example 23]
> 7.00

Look up pEC50 for this compound: O=S(=O)(N1CCCCC1)N1CCN(c2ncnc3[nH]ccc23)CC12CC2 [Example 38]
6.30 to 7.00

Sample O=S(=O)(NC[C@@H]1CCCN1Cc1ccccc1)N1CCN(c2ncnc3[nH]ccc23)CC12CC2 [Example 175] — what was its pEC50?
> 7.00

###

# target.entity: JAK2 (Homo sapiens)
# Construct: All four purified enzymes contain only the catalytic domain; His (N)
# Sequence (O60674 849-1124 limits assumed): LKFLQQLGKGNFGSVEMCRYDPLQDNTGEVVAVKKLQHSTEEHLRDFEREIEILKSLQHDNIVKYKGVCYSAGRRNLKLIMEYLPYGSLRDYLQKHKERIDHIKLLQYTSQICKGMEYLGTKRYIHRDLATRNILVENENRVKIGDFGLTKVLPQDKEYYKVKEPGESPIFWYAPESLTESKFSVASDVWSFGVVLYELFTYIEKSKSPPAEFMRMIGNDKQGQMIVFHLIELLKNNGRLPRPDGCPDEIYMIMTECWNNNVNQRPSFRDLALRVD
# method.notes: JAK kinase assay (HTRF, phosphorylation of synthetic peptide), JAK2
# assay.context: catalytic domain, ATP at Km (4 μM); read-out: JAK2 kinase inhibitory activity (EC50)
pEC50: −log10 of the molar value.
readout.kind: pEC50

Report pEC50 for "O=S(=O)(N(CCc1ccccc1)CCc1ccccc1)N1CCN(c2ncnc3[nH]ccc23)CC12CC2" please.
6.30 to 7.00

For the molecule "O=S(=O)(NCc1ccccc1)N1CCN(c2ncnc3[nH]ccc23)CC12CC2" , what pEC50 is on record?
> 7.00

Quick check: pEC50 of "O=S(=O)(N(CCO)CCc1ccccc1)N1CCN(c2ncnc3[nH]ccc23)CC12CC2" ?
> 7.00

Need pEC50, item "CN(C)C(=O)CN(C)S(=O)(=O)N1CCN(c2ncnc3[nH]ccc23)CC12CC2"
> 7.00

Value lookup for pEC50; key = "CN(CCn1cccn1)S(=O)(=O)N1CCN(c2ncnc3[nH]ccc23)CC12CC2"
> 7.00

I have this molecule here, "O=S1(=O)CCC(CN(CCO)S(=O)(=O)N2CCN(c3ncnc4[nH]ccc34)CC23CC3)CC1" , and I need its recorded pEC50.
> 7.00

Could you share which pEC50 value was measured for "CC(C)N(CCO)S(=O)(=O)N1CCN(c2ncnc3[nH]ccc23)CC12CC2" ?
> 7.00

pEC50 for "CC(C)N(CC#N)S(=O)(=O)N1CCN(c2ncnc3[nH]ccc23)CC12CC2" ?
> 7.00

Record request: pEC50 value, item "CN(C[C@H]1CCCN1)S(=O)(=O)N1CCN(c2ncnc3[nH]ccc23)CC12CC2"
6.30 to 7.00

# input molecule: "N#CCCCCN(CCc1ccccc1)S(=O)(=O)N1CCN(c2ncnc3[nH]ccc23)CC12CC2" ; wanted: its pEC50
> 7.00

Item under review: "COc1ccc(CNS(=O)(=O)N2CCN(c3ncnc4[nH]ccc34)CC23CC3)cc1" . Reported pEC50?
6.30 to 7.00

Query (molecule): "CCOC(=O)CN(CCc1ccccc1)S(=O)(=O)N1CCN(c2ncnc3[nH]ccc23)CC12CC2" ; field requested: pEC50
> 7.00

Which pEC50 reading was recorded for the molecule "CN(C[C@H]1CCC(=O)N1)S(=O)(=O)N1CCN(c2ncnc3[nH]ccc23)CC12CC2" ?
> 7.00

Recorded pEC50 for CN(CC1CCN(C=O)C1)S(=O)(=O)N1CCN(c2ncnc3[nH]ccc23)CC12CC2 (centres unmarked) , please?
> 7.00

May I ask what pEC50 has been recorded for "CN(CC1CCCC1)S(=O)(=O)N1CCN(c2ncnc3[nH]ccc23)CC12CC2" ?
> 7.00

Quick check: pEC50 of "CN(CCC1CC1)S(=O)(=O)N1CCN(c2ncnc3[nH]ccc23)CC12CC2" ?
> 7.00

Param item = "CC(C)NS(=O)(=O)N1CCN(c2ncnc3[nH]ccc23)CC12CC2" ; retrieve measured pEC50.
> 7.00

###

I'd be grateful if you could share measured EC50 for these entries.
# target.entity: JAK1 (Homo sapiens, UniProt P23458)
# Construct: JAK1 (aa 850-1154) and TYK2 (aa 871-1187) are expressed with an N-terminally fused GST-tag; GST (N)
# method.notes: JAK kinase assay (HTRF, phosphorylation of synthetic peptide), JAK1
# assay.context: catalytic domain, ATP at Km (7 μM); read-out: JAK1 kinase inhibitory activity (EC50)

# get_value(readout='EC50', item= "CN(C[C@@H]1CCCN1C(=O)CCO)S(=O)(=O)N1CCN(c2ncnc3[nH]ccc23)CC12CC2" )
< 100 nM

Param item = "CN(C(=O)CC(F)(F)F)S(=O)(=O)N1CCN(c2ncnc3[nH]ccc23)CC12CC2" ; retrieve measured EC50.
< 100 nM

Return reported EC50; argument: "CN(Cc1cccc(F)c1)S(=O)(=O)N1CCN(c2ncnc3[nH]ccc23)CC12CC2"
< 100 nM

Request the reported EC50 associated with CN(C[C@H]1CCCN1C(=O)C(O)CO)S(=O)(=O)N1CCN(c2ncnc3[nH]ccc23)CC12CC2 (some centres unmarked)
< 100 nM

Any idea what EC50 was measured for "O=S(=O)(N1CCN(c2ncnc3[nH]ccc23)CC12CC2)n1ccnc1" ?
100 to 500 nM

Given the compound "CN(CC1CCC(F)(F)CC1)S(=O)(=O)N1CCN(c2ncnc3[nH]ccc23)CC12CC2" , what is its reported EC50?
< 100 nM

Quick one: EC50 for "CN(C(=O)C1CCS(=O)(=O)CC1)S(=O)(=O)N1CCN(c2ncnc3[nH]ccc23)CC12CC2" ?
< 100 nM

Requested read-out: EC50. Entry: "CC(C)(C)OC(=O)N(CCCS(C)(=O)=O)S(=O)(=O)N1CCN(c2ncnc3[nH]ccc23)CC12CC2"
100 to 500 nM

###

# target.entity: JAK3 (Homo sapiens)
# Construct: All four purified enzymes contain only the catalytic domain; His (N)
# Sequence (P52333 822-1111 limits assumed): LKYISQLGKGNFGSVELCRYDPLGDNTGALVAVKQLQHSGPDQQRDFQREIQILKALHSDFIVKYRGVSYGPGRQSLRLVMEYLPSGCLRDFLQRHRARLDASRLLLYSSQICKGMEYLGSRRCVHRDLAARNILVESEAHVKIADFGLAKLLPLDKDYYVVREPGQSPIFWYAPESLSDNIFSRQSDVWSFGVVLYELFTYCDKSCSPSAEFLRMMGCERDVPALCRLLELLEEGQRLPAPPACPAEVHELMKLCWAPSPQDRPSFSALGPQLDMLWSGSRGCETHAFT
# method.notes: JAK kinase assay (HTRF, phosphorylation of synthetic peptide), JAK3
# assay.context: catalytic domain, ATP at Km (2 μM); read-out: JAK3 kinase inhibitory activity (EC50)
pEC50: −log10 of the molar value.
Record form. Attribute: pEC50. Fill in for each entry.

What value of measured pEC50 is listed for "CC(C)N(CCO)S(=O)(=O)N1CCN(c2ncnc3[nH]ccc23)CC12CC2" ?
6.30 to 7.00

# lookup: pEC50 of "CN(Cc1cccc(S(N)(=O)=O)c1)S(=O)(=O)N1CCN(c2ncnc3[nH]ccc23)CC12CC2"
> 7.00

Query (molecule): "CN(C[C@@H]1CCC(=O)N1)S(=O)(=O)N1CCN(c2ncnc3[nH]ccc23)CC12CC2" ; field requested: pEC50
> 7.00

Which pEC50 is listed for "CN(CCOc1ccccc1C#N)S(=O)(=O)N1CCN(c2ncnc3[nH]ccc23)CC12CC2" ?
6.30 to 7.00
